Biological target: UniProt:P05067
Sequence (P05067 whole entry): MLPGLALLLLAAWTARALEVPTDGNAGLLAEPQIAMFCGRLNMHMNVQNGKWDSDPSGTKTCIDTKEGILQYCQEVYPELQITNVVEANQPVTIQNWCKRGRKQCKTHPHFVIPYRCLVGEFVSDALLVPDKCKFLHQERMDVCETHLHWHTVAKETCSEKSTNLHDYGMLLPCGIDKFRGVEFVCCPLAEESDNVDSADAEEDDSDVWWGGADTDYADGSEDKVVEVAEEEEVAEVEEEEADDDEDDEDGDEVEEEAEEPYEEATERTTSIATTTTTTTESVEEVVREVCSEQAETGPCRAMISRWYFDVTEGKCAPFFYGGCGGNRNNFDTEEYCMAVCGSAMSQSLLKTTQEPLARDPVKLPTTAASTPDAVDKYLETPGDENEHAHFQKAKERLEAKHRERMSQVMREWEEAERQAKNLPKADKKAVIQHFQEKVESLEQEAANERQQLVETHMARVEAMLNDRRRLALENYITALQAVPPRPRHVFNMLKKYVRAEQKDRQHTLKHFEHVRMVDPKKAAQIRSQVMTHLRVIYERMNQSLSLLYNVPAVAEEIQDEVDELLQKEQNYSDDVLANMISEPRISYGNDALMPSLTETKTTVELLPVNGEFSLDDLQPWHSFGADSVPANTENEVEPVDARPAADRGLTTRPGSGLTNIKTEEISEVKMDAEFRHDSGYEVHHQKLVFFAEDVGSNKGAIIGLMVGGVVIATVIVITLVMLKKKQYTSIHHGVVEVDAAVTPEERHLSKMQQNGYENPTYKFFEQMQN
Experiment: Inhibition of amyloid beta (1 to 42) (unknown origin) aggregation assessed as reduction in intensity of fluorescence plateau of aggregation at 10 uM using compound dissolved in DMSO measured after 42 hrs by Thioflavin T fluorescence assay relative to control
Set-up: scale not given: the % may be the effect or the level left
The source made the active and inactive calls. The rule behind the calls is not given here.
measured.endpoint: Activity

molecular.string	experimental.target	measured.endpoint	result
COc1ccc(NC(C)=O)cc1C(=O)NNC(=O)[C@H](CCCCN)NC(=O)[C@@H]1CCCN1[C@@H]1CN(C(=O)[C@@H](NC(=O)[C@H](C)N)C(C)C)CC[C@H]1NS(=O)(=O)c1ccc(C)cc1	UniProt:P05067	Activity	38%
COc1ccc(NC(C)=O)cc1C(=O)NNC(=O)[C@H](CCCCNC(=O)OCc1ccccc1)NC(=O)[C@@H]1CCCN1[C@@H]1CN(C(=O)[C@@H](NC(=O)[C@H](C)NC(=O)OC(C)(C)C)C(C)C)CC[C@H]1NS(=O)(=O)c1ccc(C)cc1	UniProt:P05067	Activity	inactive
COc1ccc(NC(C)=O)cc1C(=O)NNC(=O)[C@H](CCCCN)NC(=O)[C@@H]1CCCN1[C@@H]1CN(C(=O)[C@@H](NC(=O)[C@H](C)N)C(C)C)CC[C@H]1N	UniProt:P05067	Activity	inactive

Attribution: ChEMBL document CHEMBL4152277
